Numbers sourced from PubChem BioAssay (NCI).

# Tested on: SF-539 CNS
# Test name: NCI tumour cell line growth inhibition, 48 h
This listing pairs compounds with measured TGI.

Compound	TGI
CC(=O)OC1CCC2(C)C(=CCC3C2CCC2(C)C(C(C)C(=O)O)CCC32)C1 (stereo not given)	> 100 µM
CN(C)CCNC(=O)c1cccc2nc3cccc(F)c3nc12	7.7 µM
COc1ccc(C2=C(c3cc(OC)c(OC)c(OC)c3)C(=O)CC2)cc1	> 48.3 µM
O=C1/C(=C\c2coc3ccccc3c2=O)c2ccccc2N1c1c(Cl)cccc1Cl	> 100 µM
[N-]=[N+]=Nc1c([N+](=O)[O-])c(Cl)nc2ccccc12	9.74 µM
Nc1ccccc1NC(=O)c1ccc(CN2CCC/C(=C\c3cccc(Cl)c3)C2=O)cc1	5.33 µM
CC(=O)OC(C)(C)N=Nc1ccc(Br)cc1	> 100 µM
CC1=CCC[C@@H]2[C@@](C)(Cc3cc(O)ccc3O)[C@H](C)CC[C@@]12C	18.4 µM
CN1c2ccccc2S(=O)(=O)n2c(COc3ccc(Cl)cc3)nnc21	> 100 µM
CC1(C)CCc2cc3c(-c4ccccc4)cc(=O)oc3cc2O1	> 100 µM
